Measured values drawn from ChEMBL document CHEMBL1140849 for this set.

- TARGET_OR_TEST_SYSTEM: Arylamine N-acetyltransferase 1 (Homo sapiens)
- ASSAY_NOTES: Inhibition of human recombinant NAT1 assessed as hydrolysis of acetyl coA using PABA as substrate by Ellman's method
MEASUREMENT_LABEL: IC50 (µM)

             chemical_structure                     target_or_test_system  endpoint_unit  experimental_value
0  O=C1NC(=S)S/C1=C\c1ccc(O)cc1  Arylamine N-acetyltransferase 1 (Homo sapiens)             µM                16.9
1  O=C1NC(=S)S/C1=C\c1ccc(F)cc1  Arylamine N-acetyltransferase 1 (Homo sapiens)             µM                12.9

a: COc1ccccc1/C=C1\SC(=S)NC1=O
b: O=C1NC(=S)S/C1=C\c1ccc(Cl)cc1
Of a and b , which shows the smaller IC50 value? Please identify the chosen entry by its label. b
(b: 4.7 µM, a: 17.6 µM)

----------
- TARGET_OR_TEST_SYSTEM: Arylamine N-acetyltransferase 2 (Mus musculus)
- Sequence (P50295 whole entry): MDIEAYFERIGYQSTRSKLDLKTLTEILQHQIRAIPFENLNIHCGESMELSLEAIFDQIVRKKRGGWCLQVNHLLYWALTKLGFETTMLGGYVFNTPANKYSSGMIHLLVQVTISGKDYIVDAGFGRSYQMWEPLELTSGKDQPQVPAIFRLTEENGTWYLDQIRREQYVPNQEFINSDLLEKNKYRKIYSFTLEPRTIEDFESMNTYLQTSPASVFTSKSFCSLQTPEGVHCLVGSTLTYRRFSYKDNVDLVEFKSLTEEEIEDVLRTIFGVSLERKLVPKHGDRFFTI
- ASSAY_NOTES: Inhibition of mouse recombinant NAT2 assessed as hydrolysis of acetyl coA using PABA as substrate by Ellman's method
pIC50: −log10 of the molar value.
MEASUREMENT_LABEL: pIC50

>>> df
                        chemical_structure  measurement_label  experimental_value
0          NN1C(=O)/C(=C/c2ccc(O)cc2)SC1=S              pIC50                5.00
1  CN1C(=O)/C(=C/c2ccc(-c3ccccc3)cc2)SC1=S              pIC50                5.26

I: NN1C(=O)/C(=C/c2ccccc2-c2ccccc2)SC1=S
II: CN1C(=O)/C(=C/c2ccccc2O)SC1=S
III: CN1C(=O)/C(=C/c2ccc(Cl)cc2)SC1=S
Provide the items ranked by increasing pIC50. Respond with the label ranking, as requested. II, III, I

----------
- TARGET_OR_TEST_SYSTEM: Arylamine N-acetyltransferase 1 (Homo sapiens, UniProt P18440)
- Sequence (P18440 whole entry): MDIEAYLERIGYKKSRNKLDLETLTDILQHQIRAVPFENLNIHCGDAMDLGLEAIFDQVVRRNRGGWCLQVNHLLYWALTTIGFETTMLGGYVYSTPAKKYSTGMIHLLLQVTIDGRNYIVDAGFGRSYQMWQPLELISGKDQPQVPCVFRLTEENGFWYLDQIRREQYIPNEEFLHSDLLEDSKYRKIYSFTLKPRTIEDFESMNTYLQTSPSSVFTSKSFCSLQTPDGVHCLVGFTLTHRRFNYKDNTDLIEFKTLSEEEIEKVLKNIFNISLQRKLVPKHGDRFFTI
- ASSAY_NOTES: Inhibition of human recombinant NAT1 assessed as hydrolysis of acetyl coA using PABA as substrate by Ellman's method
Parameter IC50: see the listing below.

              chemical_structure  experimental_value
0  COc1cccc(/C=C2\SC(=S)NC2=O)c1             > 30 µM
1  COc1ccc(/C=C2\SC(=S)NC2=O)cc1             > 30 µM

Now for another entry.
Which measured IC50 value corresponds to Cc1ccc(/C=C2\SC(=S)NC2=O)cc1 ? > 30 µM
